Assay: Cellular viability qHTS for adrenocortical cancer (ACC) cell line SW-13 (AID 1963989);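 also: cells grown in serum-free medium with ITS supplement; % is scaled to controls: 0 for no effect and ±100 for the full control effect; nearly all actives have a fitted effect of over 65% in size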
Details: SW-13 ACC cells viability, CellTiter-Glo, 48 h; hits give low values
Records with an inconclusive call do not appear. Calls of active or inactive are those of the source. Calls follow the shape of the dose curve; as a rule, active = well fitted cell-killing curve with a large enough effect; inconclusive = small, poorly fitted or top-dose-only effect; inactive = flat fitted curve, though single readings scatter.
# key: entry, value: activity (max response)
measure: activity (max response)

> print(dat)
                                   compound             result
1  C[N+]1(CCF)[C@@H]2CC[C@H]1CC(OC(=O)C(O)(c1ccccc1)c1ccccc1)C2 (stereo not given in full)   9.46% (inactive)
2  CC(=O)[C@H]1CC[C@H]2[C@@H]3CC[C@H]4C[C@H](O)CC[C@]4(C)[C@H]3C(=O)C[C@]12C  0.908% (inactive)
3                   CN(C)CCc1c[nH]c2ccccc12  -12.4% (inactive)
4  C#C[C@]1(O)CC[C@H]2[C@@H]3CCC4=CC(=O)CCC4=C3C=C[C@@]21CC   13.9% (inactive)
5  C[C@]12CCC(=O)C=C1CC[C@@H]1[C@@H]2CC[C@]2(C)C(=O)CC[C@@H]12  -7.18% (inactive)
